EXPERIMENTAL_TARGET: SB100X-H19Y (synthetic Sleeping Beauty transposon, K14R;H19Y;K33A;R115H;R214D;K215A;E216V;N217Q;M243H;T314N)
ASSAY_REMARKS: fluorescence anisotropy; Full-length MST: 50 mM Tris pH 7.5, 5 mM MgCl2, 300 mM NaCl, 2% glycerol, 50 mM Arg-Glu, 1 mM TCEP, 0.1% Triton X-100, 0.1 mg/ml BSA, 30 nM Cy5-DNA, room temp
CONDITION_PARAMETERS: protein: recombinant; tags: Ni-NTA purified; label: 5' Cy5 on forward strand (MST)
PROPERTY_MEASURED: pKd
Note on pKd: it is the negative log10 of concentration, concentration in mol/L.

Li (dsDNA) DNA 1: TCCAGTGGGTCAGAAGTTTACATACACTAAGT DNA 2: ACTTAGTGTATGTAAACTTCTGACCCACTGGA; 7.80

Find the measured pKd of Lo (dsDNA) DNA 1: CAGTTGAAGTCGGAAGTTTACATACACTTAAG DNA 2: CTTAAGTGTATGTAAACTTCCGACTTCAACTG and report it. 7.76

These entries and their values trace back to paper PMC11754664.
